# TARGET_OF_ASSAY: T1, human Sorcin (human, UniProt P30626 1-198)
# T1 construct: Sorcin, human
# T1 sequence (looked up): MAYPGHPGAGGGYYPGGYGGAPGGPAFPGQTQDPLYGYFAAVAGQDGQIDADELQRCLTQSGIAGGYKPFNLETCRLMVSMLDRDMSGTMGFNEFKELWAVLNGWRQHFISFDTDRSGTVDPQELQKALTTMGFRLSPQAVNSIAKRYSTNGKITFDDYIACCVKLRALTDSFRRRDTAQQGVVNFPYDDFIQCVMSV
# TEST_METHOD_NOTES: SPR; FastStep (SensiQ Pioneer); human Sorcin amine-coupled to a COOH5 chip (2000 RU); peptides 1.56-100 μM; 20 mM Hepes pH 7.4, 150 mM NaCl, 0.005% P20, 100 μM CaCl2; best fits with 2 sites
# ASSAY_SETUP: both partners purified
PROPERTY_MEASURED: Kd (nM)
Give a bare numeral; the unit nM is implied.

Task item: Fill in: Kd of ALRYNVLTLVRMLSLKSLKKQMKRMKKMTVK (source: synthetic peptide (Biomatik, purity > 90%)) [RyR2 peptide corresponding to calmodulin-binding site CaMBD3] is ___
Reply: 480
